# Tested on: S. pneumoniae D39V
# Experiment summary: Bliss interaction score (quartile over a dose matrix) (fitness difference); higher = more antagonism (negative = synergy);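 further: first quartile when negative (synergy) and third quartile when positive (antagonism)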
Outcome measure: Bliss interaction score
Answer with a bare number; do not write a unit.

Q) # value lookup — system S. pneumoniae D39V, readout Bliss interaction score, item O=C(O)c1cn(C2CC2)c2cc(N3CCNCC3)c(F)cc2c1=O [Ciprofloxacin] + CN1C2=CC=CC=C2N=C3C1=CC=CC3=O [Pyocyanin]
A) 0.0709

Q) # value lookup — system S. pneumoniae D39V, readout Bliss interaction score, item N#CC(C#N)=NNc1cccc(Cl)c1 [CCCP] + COc1ccc(C[C@H](N)C(=O)N[C@H]2[C@@H](O)[C@H](n3cnc4c(N(C)C)ncnc43)O[C@@H]2CO)cc1 [Puromycin]
A) 0.0604

====

// reported Bliss interaction score for each item listed
# Tested on: S. aureus DSM 20231
# Experiment summary: Bliss interaction score (quartile over a dose matrix) (fitness difference); higher = more antagonism (negative = synergy)
Answer with a bare number; do not write a unit.

CC(=O)Oc1ccccc1C(=O)O [Acetylsalicylicacid] + Clc1ccc(COC(Cn2ccnc2)c2ccc(Cl)cc2Cl)c(Cl)c1 [Miconazole]: 0.0658

Q) # value lookup — system S. aureus DSM 20231, readout Bliss interaction score, item COc1cccc2c1C(=O)c1c(O)c3c(c(O)c1C2=O)C[C@@](O)(C(=O)CO)C[C@@H]3O[C@H]1C[C@H](N)[C@H](O)[C@H](C)O1 [Doxorubicin] + CC1(C)S[C@@H]2[C@H](NC(=O)Cc3ccccc3)C(=O)N2[C@H]1C(=O)O [PenicillinG]
A) 0.0914

Q) # value lookup — system S. aureus DSM 20231, readout Bliss interaction score, item O=C(O)c1cn(C2CC2)c2cc(N3CCNCC3)c(F)cc2c1=O [Ciprofloxacin] + Cn1nnc(-c2ccc(-c3ccc(N4C[C@H](CO)OC4=O)cc3F)cn2)n1 [Tedizolid]
A) 0.0744

Q) # value lookup — system S. aureus DSM 20231, readout Bliss interaction score, item COc1cccc2c1C(=O)c1c(O)c3c(c(O)c1C2=O)C[C@@](O)(C(=O)CO)C[C@@H]3O[C@H]1C[C@H](N)[C@H](O)[C@H](C)O1 [Doxorubicin] + CC[C@H]1OC(=O)[C@H](C)C(=O)[C@H](C)[C@@H](O[C@@H]2O[C@H](C)C[C@H](N(C)C)[C@H]2O)[C@](C)(OC)C[C@@H](C)C(=O)[C@H](C)[C@H]2N(CCCCn3cnc(-c4cccnc4)c3)C(=O)O[C@]12C [Telithromycin]
A) -0.0292

====

# Test system: S. pneumoniae D39V
# Experiment summary: Bliss interaction score (quartile over a dose matrix) (fitness difference); higher = more antagonism (negative = synergy)
// reported Bliss interaction score for each item listed
Answer with a bare number; do not write a unit.

// worked examples, Bliss interaction score included
CC(=O)Oc1ccccc1C(=O)O [Acetylsalicylicacid] + CO[C@@H]1[C@@H](OC(N)=O)[C@@H](O)[C@H](Oc2ccc3c(O)c(NC(=O)c4ccc(O)c(CC=C(C)C)c4)c(=O)oc3c2C)OC1(C)C [Novobiocin]: 0.123
CC(=O)Oc1ccccc1C(=O)O [Acetylsalicylicacid] + CN(C)[C@@H]1C(O)=C(C(N)=O)C(=O)[C@@]2(O)C(O)=C3C(=O)c4c(O)ccc(Cl)c4[C@@](C)(O)[C@H]3C[C@@H]12 [Clortetracycline]: -0.0497

Here is another molecule to look at.
Q) Form field: reported Bliss interaction score of N#CC(C#N)=NNc1cccc(Cl)c1 [CCCP] + CO[C@@]12[C@H](COC(N)=O)C3=C(C(=O)C(C)=C(N)C3=O)N1C[C@@H]1N[C@@H]12 [MitomycinC]
A) -0.0605

====

# Test system: S. pneumoniae D39V
# Experiment summary: Bliss interaction score (quartile over a dose matrix) (fitness difference); higher = more antagonism (negative = synergy)
Lab note: anything with Bliss interaction score at or over -0.06 counts as 1; the rest go in -1.

Example entries begin here.
CN(C)[C@@H]1C(O)=C(C(N)=O)C(=O)[C@@]2(O)C(O)=C3C(=O)c4c(O)ccc(Cl)c4[C@@](C)(O)[C@H]3C[C@@H]12 [Clortetracycline] + Cc1onc(-c2ccccc2)c1C(=O)N[C@@H]1C(=O)N2[C@@H]1SC(C)(C)[C@@H]2C(=O)O [Oxacillin]: 1
CO/N=C(\C(=O)N[C@@H]1C(=O)N2C(C(=O)O)=C(COC(C)=O)CS[C@H]12)c1csc(N)n1 [Cefotaxime] + C[C@@H]1O[C@@H]1P(=O)(O)O [Fosfomycin]: -1
COc1cccc2c1C(=O)c1c(O)c3c(c(O)c1C2=O)C[C@@](O)(C(=O)CO)C[C@@H]3O[C@H]1C[C@H](N)[C@H](O)[C@H](C)O1 [Doxorubicin] + Clc1ccc(COC(Cn2ccnc2)c2ccc(Cl)cc2Cl)c(Cl)c1 [Miconazole]: 1
COc1cccc2c1C(=O)c1c(O)c3c(c(O)c1C2=O)C[C@@](O)(C(=O)CO)C[C@@H]3O[C@H]1C[C@H](N)[C@H](O)[C@H](C)O1 [Doxorubicin] + C[C@H]1c2cccc(O)c2C(=O)C2=C(O)[C@]3(O)C(=O)C(C(N)=O)=C(O)[C@@H](N(C)C)[C@@H]3[C@@H](O)[C@@H]21 [Doxycycline]: -1
N#CC(C#N)=NNc1cccc(Cl)c1 [CCCP] + CN[C@H](CC(C)C)C(=O)N[C@H]1C(=O)N[C@@H](CC(N)=O)C(=O)N[C@H]2C(=O)N[C@H]3C(=O)N[C@H](C(=O)N[C@H](C(=O)O)c4cc(O)cc(O)c4-c4cc3ccc4O)[C@H](O)c3ccc(c(Cl)c3)Oc3cc2cc(c3O[C@@H]2O[C@H](CO)[C@@H](O)[C@H](O)[C@H]2O[C@H]2C[C@](C)(N)[C@H](O)[C@H](C)O2)Oc2ccc(cc2Cl)[C@H]1O [Vancomycin]: 1
COc1cccc2c1C(=O)c1c(O)c3c(c(O)c1C2=O)C[C@@](O)(C(=O)CO)C[C@@H]3O[C@H]1C[C@H](N)[C@H](O)[C@H](C)O1 [Doxorubicin] + CC(=O)O[C@H]1C[C@@]2(C)[C@@H](C[C@@H](O)[C@H]3[C@@]4(C)CC[C@@H](O)[C@@H](C)[C@@H]4CC[C@@]32C)/C1=C(\CCC=C(C)C)C(=O)O [Fusidic acid]: -1
CN(C)[C@@H]1C(O)=C(C(N)=O)C(=O)[C@@]2(O)C(O)=C3C(=O)c4c(O)ccc(Cl)c4[C@@](C)(O)[C@H]3C[C@@H]12 [Clortetracycline] + CC[C@H]1OC(=O)[C@H](C)C(=O)[C@H](C)[C@@H](O[C@@H]2O[C@H](C)C[C@H](N(C)C)[C@H]2O)[C@](C)(OC)C[C@@H](C)C(=O)[C@H](C)[C@H]2N(CCCCn3cnc(-c4cccnc4)c3)C(=O)O[C@]12C [Telithromycin]: -1

Q) Can N#CC(C#N)=NNc1cccc(Cl)c1 [CCCP] + COc1c(N2C[C@@H]3CCCN[C@@H]3C2)c(F)cc2c(=O)c(C(=O)O)cn(C3CC3)c12 [Moxifloxacin] be said to have Bliss interaction score at or above -0.06?
A) 1

====

// reported Bliss interaction score for each item listed
# Tested on: S. pneumoniae D39V
# Experiment summary: Bliss interaction score (quartile over a dose matrix) (fitness difference); higher = more antagonism (negative = synergy)
Answer with a bare number; do not write a unit.

COc1cccc2c1C(=O)c1c(O)c3c(c(O)c1C2=O)C[C@@](O)(C(=O)CO)C[C@@H]3O[C@H]1C[C@H](N)[C@H](O)[C@H](C)O1 [Doxorubicin] + CN(C)c1cc(NC(=O)CNC(C)(C)C)c(O)c2c1C[C@H]1C[C@H]3[C@H](N(C)C)C(O)=C(C(N)=O)C(=O)[C@@]3(O)C(O)=C1C2=O [Tigecycline]: 0.0654

Here is another molecule to look at.
Q) Form field: reported Bliss interaction score of CO/N=C(\C(=O)N[C@@H]1C(=O)N2C(C(=O)O)=C(COC(C)=O)CS[C@H]12)c1csc(N)n1 [Cefotaxime] + CC(=O)NC[C@H]1CN(c2ccc(N3CCOCC3)c(F)c2)C(=O)O1 [Linezolid]
A) 0.157

====

# System: S. pneumoniae D39V
# Experiment summary: Bliss interaction score (quartile over a dose matrix) (fitness difference); higher = more antagonism (negative = synergy)
Lab note: anything with Bliss interaction score at or over 0.04 counts as fulfilled; the rest go in not fulfilled.

Q) Can Cc1ncc([N+](=O)[O-])n1CCO [Metronidazole] + CO[C@@H]1[C@@H](OC(N)=O)[C@@H](O)[C@H](Oc2ccc3c(O)c(NC(=O)c4ccc(O)c(CC=C(C)C)c4)c(=O)oc3c2C)OC1(C)C [Novobiocin] be said to have Bliss interaction score at or above 0.04?
A) fulfilled

Q) Can C[C@H]1c2cccc(O)c2C(=O)C2=C(O)[C@]3(O)C(=O)C(C(N)=O)=C(O)[C@@H](N(C)C)[C@@H]3[C@@H](O)[C@@H]21 [Doxycycline] + CN(N=O)C(=O)N[C@@H](C=O)[C@@H](O)[C@H](O)[C@H](O)CO [Streptozotocin] be said to have Bliss interaction score at or above 0.04?
A) not fulfilled

Q) Can CO/N=C(\C(=O)N[C@@H]1C(=O)N2C(C(=O)O)=C(COC(N)=O)CS[C@H]12)c1ccco1 [Cefuroxime] + COc1cc(Cc2cnc(N)nc2N)cc(OC)c1OC [Trimethoprim] be said to have Bliss interaction score at or above 0.04?
A) not fulfilled

Q) Can C[C@@H]1O[C@@H]1P(=O)(O)O [Fosfomycin] + Cc1cc(NS(=O)(=O)c2ccc(N)cc2)no1 [Sulfamethoxazol] be said to have Bliss interaction score at or above 0.04?
A) not fulfilled

Q) Can CO/N=C(\C(=O)N[C@@H]1C(=O)N2C(C(=O)O)=C(COC(N)=O)CS[C@H]12)c1ccco1 [Cefuroxime] + C[C@H]1c2cccc(O)c2C(=O)C2=C(O)[C@]3(O)C(=O)C(C(N)=O)=C(O)[C@@H](N(C)C)[C@@H]3[C@@H](O)[C@@H]21 [Doxycycline] be said to have Bliss interaction score at or above 0.04?
A) fulfilled

Q) Can COc1cccc2c1C(=O)c1c(O)c3c(c(O)c1C2=O)C[C@@](O)(C(=O)CO)C[C@@H]3O[C@H]1C[C@H](N)[C@H](O)[C@H](C)O1 [Doxorubicin] + C/C(=C\C(=O)OCCCCCCCCC(=O)O)C[C@@H]1OC[C@H](C[C@@H]2O[C@H]2[C@@H](C)[C@H](C)O)[C@@H](O)[C@H]1O [Pseudomonic acid] be said to have Bliss interaction score at or above 0.04?
A) not fulfilled

Q) Can CC(=O)Oc1ccccc1C(=O)O [Acetylsalicylicacid] + COc1ccc(C[C@H](N)C(=O)N[C@H]2[C@@H](O)[C@H](n3cnc4c(N(C)C)ncnc43)O[C@@H]2CO)cc1 [Puromycin] be said to have Bliss interaction score at or above 0.04?
A) fulfilled

Q) Can CN(C)[C@@H]1C(O)=C(C(N)=O)C(=O)[C@@]2(O)C(O)=C3C(=O)c4c(O)ccc(Cl)c4[C@@](C)(O)[C@H]3C[C@@H]12 [Clortetracycline] + C/C(=C\C(=O)OCCCCCCCCC(=O)O)C[C@@H]1OC[C@H](C[C@@H]2O[C@H]2[C@@H](C)[C@H](C)O)[C@@H](O)[C@H]1O [Pseudomonic acid] be said to have Bliss interaction score at or above 0.04?
A) fulfilled

The reported measurements were obtained from the supplement of paper PMC10627819.
